# STUDY SYSTEM: TNAP (Homo sapiens, UniProt P05186)
# Construct: made in house; host or cells: COS-1 cells, transient expression; dialyzed serum-free conditioned medium
# ASSAY EXPLANATION: TNAP luminescent assay (CDP-star substrate, 100 mM DEA)
# Assay type: biochemical
# CONDITION SET: read-out: Selectivity Panel IC50 TNAP
# Protocol: Development of the novel luminescent TNAP assay using CDP-star substrate and detailed protocol of its application for HTS is described in more detail elsewhere. […] Briefly, the assay was 50 μM CDP-star substrate in assay buffer containing 100 mM DEA-HCl (pH 9.8), 1 mM MgCl2, and 20 μM ZnCl2. The luminescence signal was measured after a 30-min incubation at room temperature on an EnVision plate reader (PerkinElmer, Waltham, MA). […]
Each entry below lists one item and its recorded IC50 value.
Just the number please, in nM, no unit attached.

Record excerpt, results attached:
COMPOUND	STUDY SYSTEM	DISPLAY UNIT	IC50
O=C1C2CC=CCC2C(=O)N1c1n[nH]c(Cc2ccccc2)n1 (stereo not drawn) [MLS-0067142]	TNAP (Homo sapiens, UniProt P05186)	nM	190
O=C(O)c1cc(-c2ccccc2Cl)[nH]n1 [MLS-0005718]	TNAP (Homo sapiens, UniProt P05186)	nM	740

// moving on: another record for IC50
Data request: Name the recorded IC50 for COc1ccc(C)cc1S(=O)(=O)Nc1cccnc1 [MLS-0010847] .
Data returned: 930

* * *

# ASSAY EXPLANATION: Solubility in aqueous solutions
# Assay type: physicochemical
# CONDITION SET: read-out: concentrations at which compound is soluble
Each entry below lists one item and its recorded solubility value.

COMPOUND	solubility
COc1ccc(OC)c(S(=O)(=O)Nc2cnc3ccccc3c2)c1	< 25 µM

// moving on: another record for solubility
Data request: Name the recorded solubility for O=C1C2CC=CCC2C(=O)N1c1nc(-c2ccccc2)n[nH]1 (centres unmarked) .
Data returned: < 25 µM

* * *

# STUDY SYSTEM: TNAP (Homo sapiens, UniProt P05186)
# Construct: made in house; host or cells: COS-1 cells, transient expression; dialyzed serum-free conditioned medium
# ASSAY EXPLANATION: TNAP colorimetric malachite green phosphate detection (MG) assay
# Type: biochemical
# CONDITION SET: fresh solid samples from vendors; read-out: IC50 SAR-MG
Each entry below lists one item and its recorded IC50 value.
Just the number please, in µM, no unit attached.

SMILES STRING	IC50 / µM
COc1ccc(C)cc1S(=O)(=O)Nc1cccnc1	0.95

// moving on: another record for IC50
Data request: Lookup: IC50 / TNAP (Homo sapiens, UniProt P05186) / Oc1cc(-c2cccc3ccccc23)[nH]n1
Data returned: 74

* * *

# STUDY SYSTEM: TNAP (Homo sapiens, UniProt P05186)
# Construct: made in house; host or cells: COS-1 cells, transient expression; dialyzed serum-free conditioned medium
# Sequence (P05186 18-501 limits assumed): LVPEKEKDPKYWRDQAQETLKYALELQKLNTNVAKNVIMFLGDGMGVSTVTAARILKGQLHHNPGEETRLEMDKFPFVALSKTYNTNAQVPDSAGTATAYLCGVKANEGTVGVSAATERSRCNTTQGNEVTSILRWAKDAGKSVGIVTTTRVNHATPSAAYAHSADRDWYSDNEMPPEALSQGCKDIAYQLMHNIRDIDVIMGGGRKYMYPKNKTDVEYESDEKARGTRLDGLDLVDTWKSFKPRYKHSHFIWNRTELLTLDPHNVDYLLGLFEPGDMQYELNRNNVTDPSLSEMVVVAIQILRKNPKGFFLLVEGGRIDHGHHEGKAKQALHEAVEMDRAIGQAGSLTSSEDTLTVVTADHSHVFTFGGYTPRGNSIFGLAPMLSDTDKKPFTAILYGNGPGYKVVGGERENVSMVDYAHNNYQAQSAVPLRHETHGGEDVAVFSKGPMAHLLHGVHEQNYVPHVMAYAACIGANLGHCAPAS
# ASSAY EXPLANATION: TNAP luminescent assay (CDP-star substrate, 100 mM DEA)
# Assay type: biochemical
# CONDITION SET: luminescence-based assay

SMILES STRING	activity against TNAP in vitro
COc1ccc(S(=O)(=O)Nc2cnc3ccccc3c2)cc1OC	inactive
COc1ccc(OC)c(CNc2cnc3ccccc3c2)c1	inactive
COc1ccc(OC)c(C(=O)Nc2cnc3ccccc3c2)c1	inactive

The measurements presented in this section are drawn from paper PMC3392958.
